Cited source: paper PMC8002893

- Test system: SK-MEL-28 human melanoma cells
- assay: MTT cell viability assay, SK-MEL-28 melanoma
- Type: cell-based
- run_parameters: SK-MEL-28, MTT test, 24 h treatment
property_label: IC50 (µM)

Check out these entries, answers already filled in.
COc1ccc(C=NNC(=S)Nc2ccc(Cl)cc2)cc1OC.[Cl-].[Cl-].[Cu+2] :: 478
COc1ccc(C=NNC(=S)Nc2ccccc2Cl)cc1OC.COc1ccc(C=NNC(=S)Nc2ccccc2Cl)cc1OC.[Cl-].[Cl-].[Cu+2] :: 133
COc1ccc(C=NNC(=S)Nc2ccccc2)cc1OC.[Cl-].[Cl-].[Cu+2] :: 130

[P] S=C(NN=Cc1ccc(Br)cc1)Nc1cccc(Cl)c1.[Cl-].[Cl-].[Cu+2]
[Q] S=C(NN=Cc1ccc(Cl)c(Cl)c1)Nc1ccccc1Cl.S=C(NN=Cc1ccc(Cl)c(Cl)c1)Nc1ccccc1Cl.[Cl-].[Cl-].[Cu+2]
Q) // max by IC50 over [ P , Q ] // return label of chosen record
A) P
